Target: PYL5 (Arabidopsis thaliana, UniProt Q9FLB1)
Construct: 6xHis (N); made in house; BL21[DE3]pLysS for the GST-PP2Cs
Sequence (Q9FLB1 whole entry): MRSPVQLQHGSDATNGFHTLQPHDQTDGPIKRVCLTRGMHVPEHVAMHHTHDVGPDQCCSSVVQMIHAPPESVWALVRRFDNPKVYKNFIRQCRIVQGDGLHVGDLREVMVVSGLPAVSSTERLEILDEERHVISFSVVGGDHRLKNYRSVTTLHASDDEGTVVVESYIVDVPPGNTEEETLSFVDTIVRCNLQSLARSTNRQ
Sequence (Q9CAJ0 23-511 partner): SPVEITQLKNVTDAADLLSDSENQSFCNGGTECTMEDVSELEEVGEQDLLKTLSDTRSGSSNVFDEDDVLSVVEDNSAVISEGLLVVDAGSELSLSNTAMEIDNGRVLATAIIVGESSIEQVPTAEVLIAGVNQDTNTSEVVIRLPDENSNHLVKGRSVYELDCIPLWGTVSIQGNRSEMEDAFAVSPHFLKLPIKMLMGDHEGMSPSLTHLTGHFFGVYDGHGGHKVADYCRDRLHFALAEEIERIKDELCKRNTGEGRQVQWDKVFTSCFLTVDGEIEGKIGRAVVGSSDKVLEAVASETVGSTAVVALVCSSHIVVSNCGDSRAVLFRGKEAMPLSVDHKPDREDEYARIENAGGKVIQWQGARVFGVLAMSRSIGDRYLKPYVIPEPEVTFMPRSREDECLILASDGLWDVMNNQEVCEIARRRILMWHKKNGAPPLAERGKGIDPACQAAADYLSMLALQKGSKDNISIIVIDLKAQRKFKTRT
Assay: Receptor-mediated PP2C inhibition assay, receptor PYL5
Format: biochemical
Settings: read-out: IC50 (activation of PYL5)
Experimental: HAB1 and PYL proteins were expressed and purified as described previously (Park S Y, et al. (2009) Abscisic Acid Inhibits Type 2C Protein Phosphatases via the PYR/PYL Family of START Proteins. Science 324(5930):1068-1071), with minor modifications. To obtain GST-HAB1, -ABI1 and -ABI2 fusion proteins, the HAB1 cDNA was cloned into pGex-2T whereas ABI1 and ABI2 cDNAs were cloned into the vector pGex-4T-1. Expression was conducted in BL21[DE3]pLysS host cells. […]
pIC50: −log10 of the molar value.
Assay endpoint: pIC50

Cpd smiles: O=S(=O)(NCc1ccccn1)c1ccc(Br)c2ccccc12
Assay target: PYL5 (Arabidopsis thaliana, UniProt Q9FLB1)
Reading: 6.05
